Data provenance is patent US20230295310A1.

Molecular target: T1, human CD3e/d (human, UniProt P07766 23-126; P04234 22-105)
T1 construct: Bought soluble protein; also called hCD3e/d; human CD3/ed (Sino CT038-H2508H)
T1 sequence (P07766 23-126, chain 1 of 2): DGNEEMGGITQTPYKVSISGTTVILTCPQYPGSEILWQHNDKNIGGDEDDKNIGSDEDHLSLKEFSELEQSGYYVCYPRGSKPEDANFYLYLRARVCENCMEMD
T1 sequence (P04234 22-105, chain 2 of 2): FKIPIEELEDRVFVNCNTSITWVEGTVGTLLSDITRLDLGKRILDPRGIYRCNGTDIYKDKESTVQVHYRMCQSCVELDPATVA
Assay: SPR (Carterra LSA), mAb on chip
Quick reference: pKd of the listed items.
Keep it numeric: pKd is minus log10 of the concentration in mol/L.

Past entries and their recorded results:
{"Binder": "mAb 52 (antibody, V domains shown, VH and VL only) VH: QVQLVQSGAEVKKPGASVKVSCKASGYTFTSHDINWVRQATGQGLEWMGWLNPNSGKTGYAQKFQGRVTMARDTSMYTADMELSSLRFEDTAVYYCARVGHYDMWPGFFSFDYWGQGTLVTVSS VL: DIQMTQSPSSLSASVGDRIIITCRASQDIRNDLGWYQQKPGKAPKRLIYAASSLQSGVPSRFSGSRSGTEFTLTISSLHPEDFATYYCLQHRSYPYTFGQGTNLEIK", "pKd": 7.77}
{"Binder": "mAb 229 (antibody, V domains shown, VH and VL only) VH: QEQLVESGGGVVQPGRSLRLSCAASGFTFSSYGMHWVRQAPGKGLEWVAIIYYNGKKKDYADSVKGRFTISRDNSKNTLYLQMNSLRAEDTAVYYCARGLGYNWFDPWGQGTLVTVSS VL: EIVLTQSPDFQSVTPKEKVTITCRASQSIGSSLHWYQQKPDQSPKLLIKYASQSFSGVPSRFSGSGSGTDFTLTINSLEAEDAATYYCHQSSSLPYTFGQGTKLEIK", "pKd": 7.66}
{"Binder": "mAb 213 (antibody, V domains shown, VH and VL only) VH: QEQLVESGGGVVQPGGSLRLSCAASGFTFSGYGMHWVRQAPGKGLEWVAIIWYNGRKTYYAESVKGRFTISRDNSKNTLSLQMNSLRVEDTAVYYCTTGKGYNWFDPWGQGTLVTVSS VL: EIVMTQSPATLSVSPGERATLSCRASQSVSSNLAWYQQKPGQAPRLLIYGASTRATGIPARFSGSGSGTEFTLTISSLQSEDFAVYYCQQFNAWPLTFGGGTKMEIK", "pKd": 7.89}
{"Binder": "mAb 301 (antibody, V domains shown, VH and VL only) VH: EVQLLESGGGLVQPGGSRRLSCAASGFTFSSYAMSWVRQAPGKGLEWVSVISGRGDNTNYADSVKGRFTISRENSKNMLYLQMNSLRAEDTAVYYCAKKYSYYYYYMDVWGKGTTVTVSS VL: SYELTQPLSVSVALGQTARITCGGNNIGSKDVHWYQQKPGQAPVLVIYRDSNRPSGIPERFSGSNSGNTATLTISRAQAGDEADYYCQVWDSRTAVFGGGTQLTAL", "pKd": 6.96}

# input for lookup
Prompt line: Name the reported pKd value associated with the binder mAb 195 (antibody, V domains shown, VH and VL only) VH: QEQLVESGGGVVQSGRSLRLSCVASGFKFSGYGMHWVRQAPGKGLEWVAIIYYDGKNKYYADSVKGRFTISRDNSKNTLYLQMNSLRAEDTAVYYCTRGAGYNWFDSWGQGTLVTVSS VL: EIVMTQSPATLSVSPGERATLSCRASQSVRNNLAWYQQKPGQAPRLLIYGVSTRATAFPARFSGSGSGTEFTLTISSLQSEDFAVYYCQQYNNWPLTFGGGTKVEIK
Response line: 7.96
